molecular target: Aβ1-40 (Homo sapiens, UniProt P05067); test: biochemical; details: read-out: % Inucl'n (percent reduction in maximum turbidity)
Sequence (P05067 672-711): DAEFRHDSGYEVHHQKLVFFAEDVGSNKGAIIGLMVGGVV
Peptide text beside a SMILES is read from it. * marks the point of attachment. Cholyl = C[C@H](CCC(=O)*)[C@H]1CC[C@H]2[C@@H]3[C@H](O)C[C@@H]4C[C@H](O)CC[C@]4(C)[C@H]3C[C@H](O)[C@]12C
Quantity: inhibition at 100 % (%)
# unit: % | format: bare number

{"Molecule": "C[C@H](CCC(=O)NCC(=O)N[C@@H](Cc1ccccc1)C(=O)N[C@@H](Cc1ccccc1)C(=O)O)[C@H]1CC[C@H]2[C@@H]3[C@H](O)C[C@@H]4C[C@H](O)CC[C@]4(C)[C@H]3C[C@H](O)[C@]12C [PPI-438]", "Experimental System": "Aβ1-40 (Homo sapiens, UniProt P05067)", "inhibition at 100 % (%)": 0}

Read the next record carefully.
Request: Which inhibition at 100 % is listed for CC(C)[C@H](NC(=O)[C@H](C)NC(=O)CC[C@@H](C)[C@H]1CC[C@H]2[C@@H]3[C@H](O)C[C@@H]4C[C@H](O)CC[C@]4(C)[C@H]3C[C@H](O)[C@]12C)C(=O)N[C@@H](C)C(=O)N[C@@H](Cc1ccccc1)C(=O)N[C@@H](C)C(=O)O [PPI-400] (Cholyl-AVAFA-OH) ?
Response: -15

---

molecular target: Aβ1-40 (Homo sapiens);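 further: Aβ nucleation assay tracking fiber polymerization from monomer by turbidity (light scattering), shaken continuously in 96-well plates, read every 15 min over 5 h, compared with compound-free control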
Peptide text beside a SMILES is read from it. * marks the point of attachment. Cholyl = C[C@H](CCC(=O)*)[C@H]1CC[C@H]2[C@@H]3[C@H](O)C[C@@H]4C[C@H](O)CC[C@]4(C)[C@H]3C[C@H](O)[C@]12C
Quantity: % Inhibition of Plateau (%)
All answers are understood in %, so give the number only.

{"Compound": "CC(C)C[C@H](NC(=O)[C@H](CCCCN)NC(=O)CCCC[C@@H]1SC[C@@H]2NC(=N)N[C@@H]21)C(=O)N[C@H](C(=O)N[C@@H](Cc1ccccc1)C(=O)N[C@@H](Cc1ccccc1)C(=O)O)C(C)C [PPI-374, iminobiotinyl-Aβ16-20]", "Assay Value": 86}
{"Compound": "C[C@H](CCC(=O)N[C@@H](Cc1c[nH]cn1)C(=O)N[C@@H](CC(=O)O)C(=O)N[C@@H](CO)C(=O)NCC(=O)N[C@@H](Cc1ccc(O)cc1)C(N)=O)[C@H]1CC[C@H]2[C@@H]3[C@H](O)C[C@@H]4C[C@H](O)CC[C@]4(C)[C@H]3C[C@H](O)[C@]12C [PPI-339] (Cholyl-HDSGY-NH2)", "Assay Value": 13}
{"Compound": "CC(C)C[C@H](NC(=O)CC[C@@H](C)[C@H]1CC[C@H]2[C@@H]3[C@H](O)C[C@@H]4C[C@H](O)CC[C@]4(C)[C@H]3C[C@H](O)[C@]12C)C(=O)N[C@H](C(=O)N[C@@H](Cc1ccccc1)C(=O)N[C@@H](Cc1ccccc1)C(=O)N[C@@H](C)C(=O)O)C(C)C [PPI-368, cholyl-Aβ17-21]", "Assay Value": 100}

Shifting focus to the compound that follows.
Request: Please report the recorded % Inhibition of Plateau for CC(C)C[C@H](NC(=O)[C@H](CCCCN)NC(=O)CC[C@@H](C)[C@H]1CC[C@H]2[C@@H]3[C@H](O)C[C@@H]4C[C@H](O)CC[C@]4(C)[C@H]3C[C@H](O)[C@]12C)C(=O)N[C@H](C(=O)N[C@@H](C)C(=O)N[C@@H](Cc1ccccc1)C(=O)O)C(C)C [PPI-370, cholyl-Aβ16-20 Phe19- >Ala] (Cholyl-KLVAF-OH) .
Response: 73
